Data credit: the METLIN SMRT retention time set (Domingo-Almenara et al. 2019)

compounds and their reported RP-LC retention time
# Assay notes: gradient 5% acetonitrile 3 min, to 50% in 2 min, to 85% in 15 min, held 3 min, 100 µL/min
# Condition label: column: Zorbax Extend-C18 2.1 x 50 mm; eluents: water / acetonitrile, 0.1% formic acid
State just the number; it will be interpreted in s.

The cases that follow already have their RP-LC retention time on record.
Documented RP-LC retention time of COc1ccc(-n2c(=O)n(C)c(=O)c3cc(C(=O)NCc4ccccc4)cnc32)cc1 : 849

Sample CCC(=O)N1CCCc2cc(NC(=O)c3ccco3)ccc21 ; RP-LC retention time observed: 725

Given item COc1cccc(CNC(=O)N2CCC3(C2)C(=O)N(C)c2ccc(OC)cc23)c1 (centres undefined) , the value recorded as its RP-LC retention time is 704

The compound identified as Cc1nnc(N2CCCC(C(=O)NCCC(C)C)C2)c2nn(-c3ccc(Cl)cc3)c(C)c12 (centres undefined) registered its RP-LC retention time at 783

// COc1ccc(/C=C2\COc3ccc(C)cc3C2=O)cc1O : RP-LC retention time value = 1050

Others:
// recorded RP-LC retention time for CC(C)n1c(=O)sc2cc(S(=O)(=O)N3CCC(C(=O)N4CCCCC4)CC3)ccc21 : 900

The recorded RP-LC retention time for entry CC(C)Oc1ccc(-c2noc(Cn3nc(-c4ccc5c(c4)OCO5)ccc3=O)n2)cc1 equals 1080

Reported RP-LC retention time of CCn1ccc2sc(C)c(C(=O)NCc3ccc(Cl)cc3)c2c1=O : 891

What the record says about NC(=O)C1CCN(C(=O)c2cccc(NC(=O)c3nsc4ccccc34)c2)CC1 : RP-LC retention time is 703

====

# Assay notes: gradient 5% acetonitrile 3 min, to 50% in 2 min, to 85% in 15 min, held 3 min, 100 µL/min
# Condition label: column: Zorbax Extend-C18 2.1 x 50 mm; eluents: water / acetonitrile, 0.1% formic acid
Binary label based on RP-LC retention time with cut-off 700 s: below gives Yes, not below gives No.

Example entries and their recorded answers appear below.
Does the reported RP-LC retention time of the following compound sit strictly below 700 s? COc1ccc(OC)c(NC(=O)C2CCCN2S(=O)(=O)c2cc3c(cc2Cl)NC(=O)CO3)c1 (stereo not given)
No

Regarding Cc1cc(C)cc(NC(=O)C(=O)NCC(c2ccc3c(c2)CCCN3C)N2CCOCC2)c1 (stereo not given) , kindly confirm whether its RP-LC retention time is beneath 700 s.
Yes

API: query returns whether the compound falls strictly under 700 s in RP-LC retention time. Query: O=S(=O)(Nc1cccn2cnnc12)c1ccc2c(c1)CCC2
No

Dear reviewer, please state whether COc1cc2ncc(C(=O)c3ccc(C)c(C)c3)c(N3CCN(C)CC3)c2cc1OC has RP-LC retention time strictly beneath 700 s.
Yes

---
Please check: RP-LC retention time for CSc1ccccc1NC(=O)c1nnn(-c2nc3c(s2)CCCC3)c1C , strictly under 700 s or not?
No

Bench note: check whether Fc1ccccc1CNc1cc(-n2cccn2)ncn1 shows RP-LC retention time below 700 s
No

Does this compound meet the criterion RP-LC retention time < 700 s? CC(=O)Nc1ccc(NC(=O)Cn2nc(C(=O)N3CCCCC3)c3ccccc32)cc1
Yes

====

# Assay notes: gradient 5% acetonitrile 3 min, to 50% in 2 min, to 85% in 15 min, held 3 min, 100 µL/min
# Condition label: column: Zorbax Extend-C18 2.1 x 50 mm; eluents: water / acetonitrile, 0.1% formic acid
Readout type: RP-LC retention time (s)
The response must be a number in s with no trailing unit.

Guide cases for RP-LC retention time, answers given:
Please fill in: RP-LC retention time reported for CCOc1ccc2nc(NC(=O)CCN3C(=O)C4C5C=CC(C5)C4C3=O)sc2c1 (stereo not given) = 834

For reference, reported RP-LC retention time for COc1ccc(S(=O)(=O)N2CCCC(c3nn[nH]n3)C2)cc1 (stereo not given) stands at 714

The measured RP-LC retention time associated with Cc1ccc(-c2nc(-c3cccc(-c4ccn[nH]4)c3)no2)cc1C reads 1150

Field RP-LC retention time (entry O=C(Cn1nc(-c2ccco2)ccc1=O)NCCOc1cc(N2CCCCC2)ncn1 ) reads 588

What the record says about CC(=O)Nc1ccc(Br)cc1 : RP-LC retention time is 680

Briefly, RP-LC retention time measured for CN1CCN(c2nc(C(=O)NC3CCCC3)cs2)CC1 : 585

Entry under test: Cc1nc(-c2csc(S(=O)(=O)N3CCCC(C(=O)NCc4ccccc4C)C3)c2)no1 (stereo not given) . Its RP-LC retention time was 983

Noted for CCn1cc(-c2nc(CC(=O)Nc3ccc(F)cc3)cs2)c2cccnc21 : its RP-LC retention time reads 894

Continuing:
Data point: O=C(Nc1ccc(F)cc1)C1CC(=O)N(c2n[nH]c3cccc(F)c23)C1 (stereo not given) ; RP-LC retention time = 740

response.value for Cc1cc(C)c(S(=O)(=O)N2CCC(c3cc4n(n3)CCCN(C)C4=O)CC2)cc1C (field: RP-LC retention time) = 888

The recorded RP-LC retention time for COc1ccc(-c2nc3cnccn3c2Nc2ccc(Cl)cc2)cc1 is 896

Entry under test: Cc1ccc(Nc2c(-c3ccc(C)cc3)nc3c(C)cccn23)cc1 . Its RP-LC retention time was 808

====

# Assay notes: gradient 5% acetonitrile 3 min, to 50% in 2 min, to 85% in 15 min, held 3 min, 100 µL/min
# Condition label: column: Zorbax Extend-C18 2.1 x 50 mm; eluents: water / acetonitrile, 0.1% formic acid
Listing of recorded RP-LC retention time by entry.
// note: answer is a bare numeric in s

Example cases with answers are listed next.
Reported RP-LC retention time for CC1=C(C(=O)NCCN2CCOCC2)C2(CCN(Cc3ccccc3)CC2)OC1=O was 634

The measured RP-LC retention time associated with Cc1nnsc1C(=O)N1CCC2(CC1)OCCN2S(=O)(=O)c1ccc(Cl)cc1 reads 817

Short answer for CCn1c(=O)c(SCC(=O)NCCCN2CCCC(C)C2)nc2ccccc21 (stereo not drawn) : RP-LC retention time was 615

Recorded RP-LC retention time (compound CC1CCCN(c2ccc(-c3noc(CN4CCSCC4)n3)cn2)C1 (stereo not drawn) ): 856

Sure, the documented RP-LC retention time for Cc1cccc(S(=O)(=O)N2CCC(C)(C(=O)NCc3ccc(F)cc3)CC2)c1 is 936

Form field RP-LC retention time, entry CC(=O)N1CCN(c2nc3c(s2)CC(C(=O)Nc2ccc(Cl)c(C)c2)CC3)CC1 (stereo not drawn) : 652

New cases:
GET /value?item= COC(=O)C1=CN(c2cccc(Cl)c2)c2ccc(F)cc2S1(=O)=O &field=RP-LC retention time returns 895

Form field RP-LC retention time, entry Cc1cc(NC(=O)CN2C(=O)c3ccccc3C2=O)n(-c2ccccc2)n1 : 709

Entry COc1cc(CNC(=O)C2CCCN(c3nccc(C)n3)C2)cc(OC)c1OC (stereo not drawn) , RP-LC retention time reported as 655

GET /value?item= CCc1ccc(CNC(=O)C2Cc3cc(S(=O)(=O)N(CC)CC)ccc3N2C(C)=O)cc1 (stereo not drawn) &field=RP-LC retention time returns 617

// sample Cn1c(NC(=O)c2ccc(N3C(=O)CCC3=O)cc2)cc(=O)n(C)c1=O , its RP-LC retention time was 565

For record CC(C)CC(=O)N1CCN(c2ccc(=O)n(-c3cccc(Cl)c3)n2)CC1 the listed RP-LC retention time is 829

// RP-LC retention time value for COc1cccc(OC)c1C(=O)Nc1ccc2c(c1)Sc1ncccc1C(=O)N2C(C)C : 883

compound CCCn1ccc2sc(C)c(C(=O)N3CCN(c4ccc(F)cc4)CC3)c2c1=O , RP-LC retention time observed: 872

Notebook: Cc1c(C(=O)N2CCCCCC2)sc2ncn(CC(=O)N3CC(C)CC(C)C3)c(=O)c12 (stereo not drawn) , RP-LC retention time read as 891

====

# Assay notes: gradient 5% acetonitrile 3 min, to 50% in 2 min, to 85% in 15 min, held 3 min, 100 µL/min
# Condition label: column: Zorbax Extend-C18 2.1 x 50 mm; eluents: water / acetonitrile, 0.1% formic acid
In this section we review reported RP-LC retention time values for a set of compounds.
Enter your answer as a number in s; do not include the unit.

Example cases with answers are listed next.
For reference, reported RP-LC retention time for O=C(NCc1cccnc1)c1nnc(-c2ccc(S(=O)(=O)N3CCCCC3)cc2)o1 stands at 669

// CCc1nc2c(=O)n(CC(=O)N3CCN(c4ccc(Cl)cc4)CC3)nc(C)c2s1 : RP-LC retention time value = 854

Memo: CN(C)c1ccc(CNC(=O)Cn2cc(-c3nnco3)c3ccccc32)cc1 , reported RP-LC retention time: 615

Further cases:
Form: compound = COc1ccc(C)cc1NC(=O)Cn1c(C)nc2c(sc3nc(-c4ccccc4)ccc32)c1=O ; RP-LC retention time = 1110

Record CCOC(=O)c1ncn(Cc2ccc3c(c2)OCO3)c1N , field RP-LC retention time: 609

According to the records, this compound COCCCNC(=O)C1CCCN(C(=O)c2[nH]c(C)cc2C)C1 (centres undefined) displays RP-LC retention time of 652

The value of RP-LC retention time measured for the compound Cn1cc(CN2CCC(C(=O)NCc3ccccc3F)CC2)c2cc(Cl)ccc21 turned out to be 705

Measured RP-LC retention time, Cc1cc2nn(CC(=O)N3CCC(C)CC3)c(=O)n2c(-c2ccc(Cl)cc2)n1 : 867
